The measured values listed here are drawn from patent US20250340659A1.

Biological target: T1, recombinant canine OX40L ECD-TNCc-HIS protein (canine)
T1 construct: also called Trimeric OX40L probe (HIS tag); trimeric canine OX40L
T1 chain: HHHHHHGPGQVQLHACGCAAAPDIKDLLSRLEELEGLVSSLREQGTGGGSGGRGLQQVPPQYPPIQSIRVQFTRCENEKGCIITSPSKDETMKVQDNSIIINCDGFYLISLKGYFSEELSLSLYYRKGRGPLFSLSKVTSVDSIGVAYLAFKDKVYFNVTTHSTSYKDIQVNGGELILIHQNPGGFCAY
Assay: SPR Koff (kd1)
Respond with T for koff values of 0.002 s⁻¹ and above, F for values below.

PMX053 (antibody, V domains shown, also called PMX53) VH: EVQLVESGGDLVKPAGSLRLSCVASGFTFSSYSMSWVRQAPEKGLQLVAGINSAGSSTYYTDAVKGRFTISRDNAKNTVYLQMNSLRAEDTAIYYCAKRWVFDYWGQGTLVTVSS VL: DIVMTQTPLSLSVSPGEPASISCKASQSLPHSLGNTYLYWFRQKPGQSPQRLIYKVSNRDPGVPDRFSGSGSGTDFTLRISRVEADDAGIYYCGQGIQDPFTFGQGTKLEIK; F
PMX294 (antibody, V domains shown) VH: EVQLVESGGDLVKPEGSLRLSCAVSGFTFSSNDMSWVRQAPGKGLQWVAYITYDGRSTSYTDIVKGRFTVSRDNAKNTLYLQMNSLRSEDAAVYYCAKAQRGWFFDYWGQGTLVTVSS VL: SYVLTQLPSVSVTLRQTARITCGGDSIGSKNVYWYQQKLGQAPVLIIYDDDSRPSGIPERISGANSGNTATLTISGALAEDEADYYCQVWDSSTGVFGGGTHLTVL; F
PMX026 (antibody, V domains shown, also called PMX26) VH: EVHLVESGGDLVKPGGSLRLSCVASGFTFSSYHMSWVRQAPGKGLQWVAFINAGEISTNYADAVKGRFTISRDNAKNILYLQMNSLRAEDTAVYYCASGHIWIRPFDYWGQGTLVTVSS VL: SYVLTQLPSMSVTLRQTARITCEGDSIGRKRVNWYQQKLGQVPVLIIYDDDSRPSGIPERFSGANSGNTATLTISGALAEDEAEYYCQVWDSSNNWVFGEGTQLTVL; F
PMX045 (antibody, V domains shown, also called PMX45) VH: EVQLVESGGDLVKPGGSLRLSCVASGFTFSSYHMTWVRQAPGKGLQWVAYITSGGITTSYADAVKGRFTISRDNAKNTLYLQMSSLRAEDTAMYYCARDLVLLLGGADYWGQGTLVTVSS VL: SYELTQPPSVNVTLRETAHITCGGDSIGRKYVQWIQQNPGQAPVVIIYKDSNRPTGIPERFSGANSGNTATLTISGALAEDEADYYCQVGDSGTKAVFGGGTHLTVL; T

Lab note: next binder to report on.
Dear colleague, could you confirm whether PMX060 (antibody, V domains shown, also called PMX60) VH: EVQLVESGGDLMKPGGSLRLSCVASGFTFSSFPMSWVRQAPGKGLQWVAYIHSGGSSTSYADAVKGRFTISRDNAKNTLYLQMNSLRAEDTAIYYCARTFPTVAADNWFYYWGQGTLVTVSS VL: SYVLTQLPSKNVTLKQAAHITCGGDNIGSKSVHWYQQKLGQAPVLIIYYDSSRPTGIPERFSGANSGNTATLTISGALAEDEADYYCQVWDSSAKWVFGEGTQLTVL has koff at or above 0.002 s⁻¹?
T
